# GI50 annotations
- Test system: SW-620
- runDescription: NCI tumour cell line growth inhibition, 48 h
Active and inactive are the calls of the source. Rule as the data show it: active = GI50 up to about 1.1 µM and inactive = higher.

[[record]]
molecule = "CN(C)c1nc(N(C)C)n2nc(-c3ccccc3[N+](=O)[O-])nc2n1"
experimentaltarget = "SW-620"
measure = "GI50"
result = "10.1 µM (inactive)"

[[record]]
molecule = "O=C1CCSCCC(=O)Nc2ccccc2N1"
experimentaltarget = "SW-620"
measure = "GI50"
result = "> 100 µM (inactive)"

[[record]]
molecule = "Cc1ccc(NCC(=O)N2CC(=O)Nc3ccccc32)cc1"
experimentaltarget = "SW-620"
measure = "GI50"
result = "> 100 µM (inactive)"


Q: Param item = NC(=O)c1nnc2ccc(F)cc2c1N ; retrieve measured GI50.
Result: > 100 µM (inactive)

Q: How about this molecule: O=C(O)CN1CCN(CC(=O)O)CCN(CC(=O)O)CCN(CC(=O)O)CC1
Result: > 100 µM (inactive)

Q: Lookup CSC1(C(=O)O)C2CCC3C2CCC31 (stereo unspecified)
Result: > 100 µM (inactive)
